- System: MDA-MB-231
- experiment-description: Cytotoxicity against human MDA-MB-231 cells assessed as cell death after 24 hrs by MTS assay
- Type: functional, cell-based
- settings: MDA-MB-231, 24 h
reported-endpoint: pIC50
A value of pIC50 is the negative decimal logarithm of a concentration given in moles per litre.

// query pIC50 value for entry COc1cccc2c1C(=O)c1c(O)c3c(c(O)c1C2=O)C[C@@](O)(C(=O)CO)C[C@@H]3O[C@H]1C[C@H](N)[C@H](O)[C@H](C)O1
6.05

Where do these numbers come from? They come from ChEMBL document CHEMBL4145574.
